- System: SF-268
- Method description: NCI tumour cell line growth inhibition, 48 h
The source made the active and inactive calls. Cut-off read from the data, not from the text of the source: active = GI50 up to about 1.1 µM and inactive = higher.
Labels: class 1 for active, class 0 for inactive

C/C=C(/CCCCNCCCC)[Si](C)(C)C	class 0
O=C(/C=C/C(Cl)(Cl)Cl)Nc1ccc(Cl)cc1	class 0
CC(=O)O[C@H]1C(=O)[C@]2(C)[C@@H](OC(=O)OCC(O)CO)C[C@H]3OC[C@@]3(OC(C)=O)[C@H]2[C@H](OC(=O)c2ccccc2)[C@]2(O)C[C@H](OC(=O)[C@H](O)[C@@H](NC(=O)c3ccccc3)c3ccccc3)C(C)=C1C2(C)C (some centres undefined) [PACLITAXEL CERIBATE]	class 1
COc1ccc2[nH]c3c(cnn4cnnc34)c2c1	class 0
CC(C)(C)OC(=O)N[C@H]1CC(=O)c2ccccc2N(CC(=O)O)C1=O	class 0
CCC1(CC)C(=O)NN(C(=O)c2ccccc2)C1=O	class 0
C=C1C(=O)OC2/C=C(/C)C(OC(C)=O)CC(O)/C(C)=C\C(OC(=O)/C(C)=C\C)C12 (centres undefined)	class 0
COc1ccc2nccc(NCCCN3CCN(CCCNc4ccnc5ccc(OC)cc45)CC3)c2c1	class 1
Cc1ccc(S(=O)(=O)NCc2cccc([N+](=O)[O-])c2)cc1	class 0
O=Cc1cc2c(o1)C(=O)c1ccccc1C2=O	class 0
Nc1nc(NCCO)c(N=O)c(=O)[nH]1	class 0
O=C(NCCNCCNC(=O)C(F)(F)F)C(F)(F)F	class 0
COc1cc(OC)cc(N(C)Cc2cnc3nc(N)nc(N)c3c2C)c1	class 1
O=C1NC2=C(CCCC/C2=N\O)C12CCCCC2	class 0
N#CC(C(=O)CCCC(=O)Nc1ccc(Cl)cc1Cl)c1ccccc1 (centres undefined)	class 0
COc1cc(/C=C/C(=O)c2c([O-])on[n+]2-c2ccccc2)ccc1O	class 0
O=C1CSc2nc3ccccc3n2/C=N\N1	class 0
O=C1CCc2ccc(O)c(c2)Oc2ccc(cc2)C(Sc2ccccc2)CCO1 (centres undefined)	class 0
COc1ccc(N2C(=O)C(=O)N(c3ccc(/N=N\c4ccccc4)cc3)C2=S)cc1	class 0
OCC(CO)C1c2cccc3ccc4cccc1c4c23	class 0
Cc1ccc2nc3n(c2c1)C(c1c(F)cccc1F)SC3 (centres undefined)	class 0
C=C(C)CCN(C(=O)OC(C)(C)C)c1cc(C(C)C)co1	class 1
COC(=O)/C=C(\C(=O)OC)c1c2c3c(cc(OC)c(OC)c3c3ccccc13)CCN2C	class 0
O=P(O)(O)C1CCCC(P(=O)(O)O)N1 (centres undefined)	class 0
Cc1ccc([N+](=O)[O-])cc1S(=O)(=O)Nc1ccc(C2=NN(c3ccc([N+](=O)[O-])cc3[N+](=O)[O-])C(c3ccccc3O)C2)cc1 (centres undefined)	class 0
Cc1ccc(S(=O)(=O)NC(=O)Nc2ccc(S(N)(=O)=O)cc2S(N)(=O)=O)cc1	class 0
CCCCCCCCOCC(CO)OCCCCCCCC (centres undefined)	class 0
CCOC(=O)/C=C(/C(=O)OCC)n1ccc(=O)n(Cc2cn(CCCCOC(C)=O)nn2)c1=O	class 0
O=c1[nH]c2cc3cccnc3c(Cl)c2nc1CBr	class 0
O=C(O)Cc1cccc2c1Oc1ccccc1S2	class 0
CC1=NNC(=O)C1C1(C(=O)O)CC(c2c[nH]c3ccccc23)=NC(=S)N1 (centres undefined)	class 0
CNn1c(-c2ccc(C)cc2)n[nH]c1=O	class 0
Cc1cc(N2CCOCC2)nc2ccc(Cc3ccc4nc(N5CCOCC5)cc(C)c4c3)cc12	class 0
COc1cc2[nH]c3c(c2cc1OC)CCN[C@]31CC[C@]2(CC3c4c(cc(OC)c(O)c42)CCN3C)C[C@H]1OC (some centres undefined)	class 0
CC(C)(C)C[P+](C)(C)c1ccccc1	class 0
Clc1cc(-c2ccccc2)nc2ccccc12	class 0
O=[N+]([O-])c1ccc(N/N=C/c2ccc(OCCCCCCCCCCCO)cc2)c([N+](=O)[O-])c1	class 0
CC1OC2(CC(OCc3ccccc3)C1OCc1ccccc1)OCCO2 (centres undefined)	class 0
C=CCN(c1cc(OCc2ccccc2)c(NC(C)=O)cc1[N+](=O)[O-])S(C)(=O)=O	class 0
COc1ccc2c(c1)C(O)(C(F)(F)F)c1cc(C(=O)C(F)(F)F)c3ccccc3c1N2 (centres undefined)	class 0
O=C1ON(Cc2ccccc2)C(c2ccccc2)N1c1ccccc1 (centres undefined)	class 0
N=C(N)NCCCC(NC(=O)c1cccc2c(=O)c3ccccc3[nH]c12)C(=O)O (centres undefined)	class 0
COC(=O)c1ccc(/N=N/N(C)COc2ccc([N+](=O)[O-])cc2)cc1	class 0
O=C1C2CC=CCC2C(=O)N1n1c(-c2ccccc2)n[nH]c1=O (centres undefined)	class 0
